Test system: RSK1(Kin.Dom.1-N-terminal);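 further: KINOMEscan scanMAX binding as percent activity remaining versus control; lower means stronger binding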
Construct: gene RPS6KA1
Conditions: Compound Concentration (nM):1000
Field: Percent Control. Provide a value for each of the molecules that follow.
One number for each entry, in %.

[
  {
    "molecule": "O=C1Nc2ccc(C(=O)c3ccco3)cc2C1=Cc1cc(Cl)c(O)c(Cl)c1 [GW406108X]",
    "attribute measured": "Percent Control",
    "experimental result": 78
  },
  {
    "molecule": "Nc1ncnc2occ(-c3ccc(NC(=O)Nc4cc(C(F)(F)F)ccc4F)cc3)c12 [GW770249X]",
    "attribute measured": "Percent Control",
    "experimental result": 100
  },
  {
    "molecule": "C/C(Nc1ccc(S(N)(=O)=O)cc1)=C1/C(=O)Nc2ccccc21 [GW335962X]",
    "attribute measured": "Percent Control",
    "experimental result": 100
  },
  {
    "molecule": "Cl.O=S1CCN(Cc2ccc(-c3ccc4ncnc(Nc5ccc(OCc6ccccc6)c(F)c5)c4c3)o2)CC1 [GW576924A]",
    "attribute measured": "Percent Control",
    "experimental result": 100
  },
  {
    "molecule": "NS(=O)(=O)c1ccc(N/N=C2\\C(=O)Nc3ccc(C(=O)NCc4ccncc4)cc32)cc1 [GW300657X]",
    "attribute measured": "Percent Control",
    "experimental result": 94
  }
]

Report Percent Control for each item below.
1. Cl.O=C(O[C@H]1CN[C@H](C#Cc2cc3ncnc(Nc4ccc5c(cnn5Cc5ccccc5)c4)c3s2)C1)N1CCOCC1 [GSK200398A]
2. CN(C)c1cc2c(Nc3ccc4c(cnn4Cc4ccccc4)c3)ncnc2cn1 [GW282974X]
3. NS(=O)(=O)c1ccc(N/N=C2\C(=O)Nc3ccc(Cl)cc32)cc1 [GW280670X]

Result:
96
97
100
